- Test system: A2780
- measurement_notes: Antiproliferative activity against human A2780 cells
- Type: functional
reported_endpoint: TGI

As a guide, the following entries are already answered.
{"compound": "CC(C)C[C@@H]1C[C@H](Cl)C[C@H](CC(C)C)O1", "TGI": "90 µM"}
{"compound": "COc1ccc([C@@H]2C[C@H](Cl)C[C@H](CC(C)C)O2)cc1", "TGI": "57 µM"}
{"compound": "CC(C)C[C@H]1C[C@@H](Cl)C[C@@H](C2CCCCC2)O1", "TGI": "38 µM"}
{"compound": "CC(C)C[C@H]1C[C@@H](Cl)C[C@@H](c2ccc([N+](=O)[O-])cc2)O1", "TGI": "64 µM"}

API: the following record is the query input.
Tell me reported TGI for CC(C)C[C@H]1C[C@@H](Cl)C[C@@H](c2ccccc2)O1 , tested with A2780.
35 µM

---

- System: WiDr
- measurement_notes: Antiproliferative activity against human WiDr cells
- Format: functional
Recorded GI50 for the following compounds

Record excerpt, results attached:
{"compound": "CC(C)C[C@H]1C[C@@H](Cl)C[C@@H](c2ccc([N+](=O)[O-])cc2)O1", "GI50": "38 µM"}
{"compound": "CC(C)C[C@@H]1C[C@H](Cl)C[C@H](CC(C)C)O1", "GI50": "> 100 µM"}

Kindly review the next compound as well.
What value of GI50 has been recorded for this entry: CC(C)C[C@H]1C[C@@H](Cl)CCO1
> 100 µM

---

- Test system: SW1573
- measurement_notes: Antiproliferative activity against human SW1573 cells
- Type: functional
reported_endpoint: GI50 (µM)
All answers are understood in µM, so give the number only.

Some molecules with recorded GI50:
{"compound": "COc1ccc([C@@H]2C[C@H](Cl)C[C@H](CC(C)C)O2)cc1", "endpoint_value": 30}
{"compound": "CC(C)C[C@H]1C[C@@H](Cl)C[C@@H](c2ccc([N+](=O)[O-])cc2)O1", "endpoint_value": 30}

Quick check: GI50 of CC(C)C[C@H]1C[C@@H](Cl)C[C@@H](C2CCCCC2)O1 ?
22

Any idea what its GI50 is? The molecule is CC(C)C[C@@H]1C[C@H](Cl)C[C@H](CC(C)C)O1
67

So what's the measured GI50 for this one? CC(C)C[C@H]1C[C@@H](Cl)C[C@@H](c2ccccc2)O1
24

---

The entries below are paired with their reported TGI.
- Tested on: SW1573
- measurement_notes: Antiproliferative activity against human SW1573 cells
- Format: functional
# unit: µM | format: bare number

{"compound": "CC(C)C[C@H]1C[C@@H](Cl)C[C@@H](C2CCCCC2)O1", "unit_text": "µM", "TGI": 43}
{"compound": "COc1ccc([C@@H]2C[C@H](Cl)C[C@H](CC(C)C)O2)cc1", "unit_text": "µM", "TGI": 80}
{"compound": "CC(C)C[C@@H]1C[C@H](Cl)C[C@H](CC(C)C)O1", "unit_text": "µM", "TGI": 89}

Could you now look at the following compound, please?
Suppose we examine the compound CC(C)C[C@H]1C[C@@H](Cl)C[C@@H](c2ccccc2)O1 ; what TGI value has been reported?
48

---

This section presents molecules with their documented GI50 values.
- System: WiDr
- measurement_notes: Antiproliferative activity against human WiDr cells
- Format: functional
Field format: number, assumed µM, no unit text.

{"compound": "CC(C)C[C@H]1C[C@@H](Cl)C[C@@H](C2CCCCC2)O1", "unit_text": "µM", "GI50": 26}
{"compound": "CC(C)C[C@H]1C[C@@H](Cl)C[C@@H](c2ccccc2)O1", "unit_text": "µM", "GI50": 39}

# context switch: different molecule, same GI50
// returns reported GI50 for input COc1ccc([C@@H]2C[C@H](Cl)C[C@H](CC(C)C)O2)cc1
36

---

Overview of recorded GI50 for various compounds
- System: WiDr
- measurement_notes: Antiproliferative activity against human WiDr cells
- Format: functional

May I ask what GI50 has been recorded for Cl[C@H]1CCO[C@@H](c2ccccc2)C1 ?
> 100 µM

For the compound CC(C)C[C@H]1C[C@@H](Cl)C[C@@H](C)O1 , what GI50 is on record?
> 100 µM

Need GI50, item O=[N+]([O-])c1ccc([C@H]2C[C@@H](Cl)CCO2)cc1
> 100 µM

Reference source: ChEMBL document CHEMBL1147822
